Test system: HEK-293T
experiment description: Multiplex assay against HEK293T
Format: toxicity, cell-based
condition notes: human, 24 h, 1 µM, compound concentration 1 uM, replicate 2
quantity measured: Population Fragmented Nuclei (%)
Your answer should be a plain number; it is taken to be in %.

{"compound": "COc1ccccc1N1CCN(C[C@@H](C(=O)NC(C)(C)C)c2ccccc2)CC1.Cl.Cl", "tested on": "HEK-293T", "quantity measured": "Population Fragmented Nuclei (%)", "unit abbreviation": "%", "value reported": 11}

// next item, Population Fragmented Nuclei (%) requested
Return reported Population Fragmented Nuclei (%). Input compound: "COc1cccc2c1c(NS(=O)(=O)c1ccc(Cl)s1)nn2Cc1cccc(CNC(=O)C(C)(C)O)c1"
6

---

Test system: Fibroblast
experiment description: Multiplex assay against human fibroblast
Assay type: toxicity, cell-based
condition notes: 12 h, 10 µM, compound concentration 10 uM, replicate 1
// reported Population Normal (%) for each item listed
Number only, in %; omit the unit.

{"molecule": "C[C@H](N)COC(=O)[C@@H](CCCCN)NC(=O)Cc1c(-c2ccc3ccccc3c2)[nH]c2c1ccc1ccccc12", "value reported": 97}
{"molecule": "Cc1noc(-c2ccc(-c3ccc(CC(=O)O)cc3)cc2)c1NC(=O)O[C@H](C)c1ccccc1Cl", "value reported": 98}
{"molecule": "CC(C)(C)c1cc(NC(=O)Nc2ccc(-c3cn4c(n3)sc3cc(OCCN5CCOCC5)ccc34)cc2)no1", "value reported": 96}
{"molecule": "Cc1onc(-c2ccccc2Cl)c1C(=O)N(C)c1ccc(Cl)cc1", "value reported": 97}
{"molecule": "CCCCCC(O)/C=C/[C@H]1C(=O)CC(O)C1C/C=C\\CCCC(=O)O (stereo partly drawn)", "value reported": 99}
{"molecule": "CC[C@@H](C)Nc1nc(C)nc2c(-c3ccc(OC)nc3C)c(C)nn12", "value reported": 97}
{"molecule": "CN[C@@H](C)C(=O)N[C@H](C(=O)N1CCC[C@H]1C(=O)Nc1snnc1-c1ccccc1)C1CCCCC1", "value reported": 93}
{"molecule": "CCCCC(=O)N(Cc1ccc(-c2ccccc2-c2nnn[nH]2)cc1)[C@H](C(=O)O)C(C)C", "value reported": 100}

Return the recorded Population Normal (%) value; entry: "CCc1cc2cc(NS(=O)(=O)c3ccc(C#N)cc3)ccc2n(CC)c1=O"
98

Using the record for "CC(C)c1noc(N2CCC(COc3ccc(-c4ccc(S(C)(=O)=O)cc4)nc3)CC2)n1" , state its measured Population Normal (%).
96

---

Tested on: Fibroblast
experiment description: Multiplex assay against human fibroblast
Assay type: toxicity, cell-based
condition notes: 12 h, 10 µM, compound concentration 10 uM, replicate 2
Lab note: compare Population Mitotic Cells (%) with 60%, writing 1 if less and -1 if equal or more.

{"compound": "O=C(CCCc1ccccc1)Nc1nc2ccccc2c(=O)s1", "qualitative label": -1}
{"compound": "COc1cccc2c1c(NS(=O)(=O)c1ccc(Cl)s1)nn2Cc1cccc(CNC(=O)C(C)(C)O)c1", "qualitative label": 1}
{"compound": "N#Cc1c(Oc2cccc(OS(=O)(=O)CCCC(F)(F)F)c2)cccc1C(F)(F)F", "qualitative label": 1}
{"compound": "Cc1cccc(NC(=O)CN2CCC(c3ccccn3)CC2)c1.Cl.Cl", "qualitative label": -1}

# check: Population Mitotic Cells (%) < 60% for "CC(=O)Nc1cccc2c1c(Sc1ccc(Cl)cc1)c(C)n2CC(=O)O"
-1

Take the compound CCCCCC(O)/C=C/[C@H]1C(=O)CC(O)C1C/C=C\CCCC(=O)O (stereo not given in full) and say whether its Population Mitotic Cells (%) is less than 60%.
-1

Dear colleague, could you confirm whether Population Mitotic Cells (%) of Cl.NCCc1ccc(O)c(O)c1 [DOPAMINE HYDROCHLORIDE] falls below 60%? Thanks.
1

Take the compound "Cc1c(CC(=O)O)c2cccnc2n1Cc1ccc(S(C)(=O)=O)cc1C(F)(F)F" and say whether its Population Mitotic Cells (%) is less than 60%.
-1

---

Test system: U2OS
experiment description: Multiplex assay against U2OS
Type: toxicity, cell-based
condition notes: human, 12 h, 1 µM, compound concentration 1 uM, replicate 1
Recorded Population Membrane Permeable-Phenotype (%) by entry

Please review the following examples before continuing.
{"molecule": "CCCCCC(O)/C=C/[C@H]1C(=O)CC(O)C1C/C=C\\CCCC(=O)O (stereo not given in full)", "value reported": "5%"}
{"molecule": "Cc1cccc(NC(=O)CN2CCC(c3ccccn3)CC2)c1.Cl.Cl", "value reported": "5%"}
{"molecule": "COc1ccccc1N1CCN(C[C@@H](C(=O)NC(C)(C)C)c2ccccc2)CC1.Cl.Cl", "value reported": "5%"}
{"molecule": "CCCOc1ccc2[nH]cc(C3=CCNCC3)c2n1.Cl", "value reported": "2%"}

Fill in: Population Membrane Permeable-Phenotype (%) on U2OS, entry "Cc1c(CC(=O)O)c2cccnc2n1Cc1ccc(S(C)(=O)=O)cc1C(F)(F)F"
2%

---

Test system: U2OS
experiment description: Multiplex assay against U2OS
Assay type: toxicity, cell-based
condition notes: human, 24 h, 10 µM, compound concentration 10 uM, replicate 2
Binary classification by Population Tubulin-Different-Phenotype (%), with 5% as an inclusive lower bound for YES; all other cases are NO.

{"compound": "O=C(CCCc1ccccc1)Nc1nc2ccccc2c(=O)s1", "qualitative label": "NO"}
{"compound": "CC[C@@H](C)Nc1nc(C)nc2c(-c3ccc(OC)nc3C)c(C)nn12", "qualitative label": "NO"}
{"compound": "N#Cc1cc(F)cc(-c2nc(-c3ccc(F)cn3)no2)c1", "qualitative label": "NO"}
{"compound": "CCCCCC(O)/C=C/[C@H]1C(=O)CC(O)C1C/C=C\\CCCC(=O)O (stereo partly specified)", "qualitative label": "NO"}
{"compound": "CC(=O)Nc1cccc2c1c(Sc1ccc(Cl)cc1)c(C)n2CC(=O)O", "qualitative label": "NO"}

Moving on to another compound below.
Quick check, Population Tubulin-Different-Phenotype (%) >= 5%? "CN1CCN(c2cc(-c3ccccc3)nc(N)n2)CC1"
NO

---

# Lookup of reported Population Tubulin-Different-Phenotype (%) keyed by entry
Tested on: HEK-293T
experiment description: Multiplex assay against HEK293T
Format: toxicity, cell-based
condition notes: human, 24 h, 1 µM, compound concentration 1 uM, replicate 2
Write down the numeric answer in % and omit the unit.

{"molecule": "Cl.N=C(N)NC(=O)Cc1c(Cl)cccc1Cl [GUANFACINE HYDROCHLORIDE]", "tested on": "HEK-293T", "value reported": 19}
{"molecule": "C[C@H](N)COC(=O)[C@@H](CCCCN)NC(=O)Cc1c(-c2ccc3ccccc3c2)[nH]c2c1ccc1ccccc12", "tested on": "HEK-293T", "value reported": 25}
{"molecule": "CCCCCC(O)/C=C/[C@H]1C(=O)CC(O)C1C/C=C\\CCCC(=O)O (some centres undefined)", "tested on": "HEK-293T", "value reported": 14}

Supply Population Tubulin-Different-Phenotype (%) measured with HEK-293T for "CCCCC1=NC2(CCCC2)C(=O)N1Cc1ccc(-c2ccccc2-c2nnn[nH]2)cc1" .
14

For HEK-293T, give the measured Population Tubulin-Different-Phenotype (%) of the entry "N#Cc1c(Oc2cccc(OS(=O)(=O)CCCC(F)(F)F)c2)cccc1C(F)(F)F"
20

Determine reported Population Tubulin-Different-Phenotype (%) for "CCCOc1ccc2[nH]cc(C3=CCNCC3)c2n1.Cl" ; test system: HEK-293T.
14

---

System: Fibroblast
experiment description: Multiplex assay against human fibroblast
Type: toxicity, cell-based
condition notes: 48 h, 10 µM, compound concentration 10 uM, replicate 1
quantity measured: Population Healthy Nuclei (%)
Output spec: scalar in %, unitless text.

{"molecule": "COc1cccc2c1c(NS(=O)(=O)c1ccc(Cl)s1)nn2Cc1cccc(CNC(=O)C(C)(C)O)c1", "Population Healthy Nuclei (%)": 73}
{"molecule": "CCCOc1ccc2[nH]cc(C3=CCNCC3)c2n1.Cl", "Population Healthy Nuclei (%)": 65}
{"molecule": "Cc1sc2c(c1C)C(c1ccc(Cl)cc1)=N[C@@H](CC(=O)NCCCCCCCCNC(=O)COc1cccc3c1C(=O)N(C1CCC(=O)NC1=O)C3=O)c1nnc(C)n1-2 (stereo partly drawn)", "Population Healthy Nuclei (%)": 20}
{"molecule": "C[C@H](N)COC(=O)[C@@H](CCCCN)NC(=O)Cc1c(-c2ccc3ccccc3c2)[nH]c2c1ccc1ccccc12", "Population Healthy Nuclei (%)": 68}
{"molecule": "CC(C)c1noc(N2CCC(COc3ccc(-c4ccc(S(C)(=O)=O)cc4)nc3)CC2)n1", "Population Healthy Nuclei (%)": 65}
{"molecule": "CCc1cc2cc(NS(=O)(=O)c3ccc(C#N)cc3)ccc2n(CC)c1=O", "Population Healthy Nuclei (%)": 62}

Read off the recorded Population Healthy Nuclei (%) for "CCCCC1=NC2(CCCC2)C(=O)N1Cc1ccc(-c2ccccc2-c2nnn[nH]2)cc1"
66

Give the reported Population Healthy Nuclei (%) for this molecule. Cl.NCCc1ccc(O)c(O)c1 [DOPAMINE HYDROCHLORIDE]
66
